TARGET_DESC: Pin1 (human) (UniProt Q13526)
METHOD_SUMMARY: fluorescence anisotropy, FITC-labeled peptide
Starred links: 1 amine or outer side, 2 acyl side, 3 side chain; linkers in the order of their positions; H or OH if unused. Non-standard residues stand in square brackets, D forms with d. No end group written: not given here. Trimesoyl = O=C(c1cc(C(=O)[*:2])cc(C(=O)[*:3])c1)[*:1]; Phe(4-F) = N[C@@H](Cc1ccc(F)cc1)C(=O)O; 2Nal = N[C@@H](Cc1ccc2ccccc2c1)C(=O)O; Pip = O=C(O)[C@@H]1CCCCN1; Dap = NC[C@H](N)C(=O)O
RECORDED_ENDPOINT: Kd (µM)
Numbers only here, please. The scale is µM.

AXXXXYQK (cyclo(D-Ala-Sar-D-pThr-Pip-Nal-Tyr-Gln)-Lys-NH2) [Pin1 inhibitor 5]: 0.24
XHXTXXRAAXFXRRRRXK (not fully specified; bicyclo[Tm-(His-Phg-D-Thr-Pip-Nal-Arg-Ala-D-Ala)-Dap-(Phe-Nal-Arg-Arg-Arg-Arg-Dap)]-Lys) [peptide 8 (Table 18)]: 1

For the binder XXHEXXRAAXFXRRRRXK (not fully specified; bicyclo[Tm-(Phg-His-D-Glu-Pip-Nal-Arg-Ala-D-Ala)-Dap-(Phe-Nal-Arg-Arg-Arg-Arg-Dap)]-Lys) [peptide 6 (Table 18)] , what Kd is on record? 1

Try this binder next: XXIEXXRAAXFXRRRRXK (not fully specified; bicyclo[Tm-(Mpa-Ile-D-Glu-Pip-Nal-Arg-Ala-D-Ala)-Dap-(Phe-Nal-Arg-Arg-Arg-Arg-Dap)]-Lys) [peptide 7 (Table 18)] 1

Follow-up entry: Trimesoyl-[dF][Phe(4-F)][dT][Pip][2Nal]RA[dA][Dap]F[2Nal]RRRR[Dap]K (linker (positions not given here) via Trimesoyl; not fully specified (C-terminus, bridges); printed as bicyclo[Tm-(D-Phe-Fpa-D-Thr-Pip-Nal-Arg-Ala-D-Ala)-Dap-(Phe-Nal-Arg-Arg-Arg-Arg-Dap)]-Lys) [peptide 4 (Table 18)] 1

Values compiled from patent US20200385427A1.
